tested on: CAKI-1 renal; experiment: NCI-60 one-dose screen, 48 h (100 = growth as untreated, 0 = no growth, -100 = all killed); conditions: 10 µM unless noted
This is part of a sample that, as a whole, favours compounds with a hit. Of some 83,000 tested, about 20% had one in any assay.
Assign class by growth: not lower than 60% means Criterion met; lower than 60% means Criterion not met.

{"Structure String": "O=C(NC(Cl)=C(Cl)Cl)P(=O)(c1ccccc1)c1ccccc1", "Class Name": "Criterion met"}
{"Structure String": "CCOC(=O)c1ccccc1C(=O)OCC", "Class Name": "Criterion met"}
{"Structure String": "CC[C@H](CC[C@@H](C)[C@H]1CC[C@H]2[C@@H]3CC[C@H]4C[C@]5(CC[C@]4(C)[C@H]3CC[C@]12C)OO[C@](C)(C(F)(F)F)O5)C(C)C", "Class Name": "Criterion met"}
{"Structure String": "CN1[C@@H](CC(=O)c2ccccc2)CCC[C@H]1CC(=O)c1ccccc1", "Class Name": "Criterion met"}
{"Structure String": "O=[N+]([O-])c1ccc2scc3c4ccccc4nc-3c2c1", "Class Name": "Criterion not met"}
{"Structure String": "Cc1c2ccncc2c(C)c2c1[nH]c1ccccc12", "Class Name": "Criterion not met"}
{"Structure String": "C#Cc1cccc(Nc2nc(Cl)nc3cc(NC(=O)CF)ccc23)c1", "Class Name": "Criterion not met"}
{"Structure String": "Cc1cc(N)ccc1N", "Class Name": "Criterion met"}
{"Structure String": "Cc1ccc(NC2=N[C@]34CC(=O)CC[C@]3(C)[C@H]3CC[C@]5(C)C(=O)CC[C@H]5[C@@H]3C[C@@H]4S2)c(C)c1", "Class Name": "Criterion not met"}
{"Structure String": "Oc1cc(N2CC2)c(O)cc1N1CC1", "Class Name": "Criterion not met"}
